Kindly supply the reported protein stability index values for the records listed here.
B1: SLC6A17 (parent)
chain: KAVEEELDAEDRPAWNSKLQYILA

# Variants of: B1
# Run Description: protein stability index of a GFP-peptide fusion (GPS, HEK-293T) (PSI 1-6); higher = more stable;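 further: lentivirally expressed fusions sorted by FACS into six bins by GFP to DsRed ratio, PSI derived from sequencing read proportions per bin multiplied by bin number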
# Assay Context: c terminus: a fixed tail appended
Simply state the number, no unit and no words.

# variant KAVEEELMAEDRPAWNSKLQYILA [D8M] ; its protein stability index = 1.92

# variant KAVEEELDAEDRPAWNSKLQYFLA [I22F] ; its protein stability index = 2.2

# variant KAVEEELDAEQRPAWNSKLQYILA [D11Q] ; its protein stability index = 2.12

# variant GAVEEELDAEDRPAWNSKLQYILA [K1G] ; its protein stability index = 3.25

# variant KAVWEELDAEDRPAWNSKLQYILA [E4W] ; its protein stability index = 1.4

# variant KAVEERLDAEDRPAWNSKLQYILA [E6R] ; its protein stability index = 2.79

# variant KAVEEELDAEDRPAWNSKLQYNLA [I22N] ; its protein stability index = 4.41

# variant KAVEEELDAEDRPAWNSKPQYILA [L19P] ; its protein stability index = 3.4

# variant KYVEEELDAEDRPAWNSKLQYILA [A2Y] ; its protein stability index = 2.51

# variant KAVEEELDAEDRPAWNSKLMYILA [Q20M] ; its protein stability index = 2.16

# variant KAVEEELDAEDRPAWNSKWQYILA [L19W] ; its protein stability index = 2.48

# variant KAVEEELDAEDQPAWNSKLQYILA [R12Q] ; its protein stability index = 3.15

# variant KAVEEELDAEGRPAWNSKLQYILA [D11G] ; its protein stability index = 3.55

# variant KAVEEELDAEDRPAWNSKLQYIQA [L23Q] ; its protein stability index = 3.82

# variant KAVEEEMDAEDRPAWNSKLQYILA [L7M] ; its protein stability index = 2.98

# variant KAVEEELDAEDRPDWNSKLQYILA [A14D] ; its protein stability index = 3.38

# variant KAVEEELDAEPRPAWNSKLQYILA [D11P] ; its protein stability index = 2.02

# variant KAVEEELDMEDRPAWNSKLQYILA [A9M] ; its protein stability index = 1.73

# variant KAVEEELDAEDRPAWNSKLQAILA [Y21A] ; its protein stability index = 3.99

# variant KAVEYELDAEDRPAWNSKLQYILA [E5Y] ; its protein stability index = 1.66

# variant KAVEEELDAEDHPAWNSKLQYILA [R12H] ; its protein stability index = 2.41

# variant KAVEEELDAEDRPAWNSKLFYILA [Q20F] ; its protein stability index = 1.9

# variant KAVEEELDDEDRPAWNSKLQYILA [A9D] ; its protein stability index = 2.38

# variant KAVEEELDAEDRPAWNPKLQYILA [S17P] ; its protein stability index = 2.97

# variant KAVEEELDAEDRPAWNSKLQYILC [A24C] ; its protein stability index = 2.46

# variant KAVEEELDAEDRPAWNSPLQYILA [K18P] ; its protein stability index = 3.77

# variant KAVEEELDAEDRPAWNSHLQYILA [K18H] ; its protein stability index = 2.7

# variant KAVEEELDAEDRPAWNSKLQYLLA [I22L] ; its protein stability index = 2.83

# variant KAVEEELDAEDRPPWNSKLQYILA [A14P] ; its protein stability index = 2.46

# variant KAVEEYLDAEDRPAWNSKLQYILA [E6Y] ; its protein stability index = 2.65

# variant KAVEEELDAEDRPAWASKLQYILA [N16A] ; its protein stability index = 2.25

# variant KAVEEELDAFDRPAWNSKLQYILA [E10F] ; its protein stability index = 2.63

# variant KAVEEELDAEDRPAWWSKLQYILA [N16W] ; its protein stability index = 2.05

# variant KAVEEELDAEDRPAPNSKLQYILA [W15P] ; its protein stability index = 3.68

# variant KAVEEELDAEDRPAWNLKLQYILA [S17L] ; its protein stability index = 1.99

# variant KAVEEEPDAEDRPAWNSKLQYILA [L7P] ; its protein stability index = 3.64

# variant KAVEEELDAECRPAWNSKLQYILA [D11C] ; its protein stability index = 1.99

# variant KAVMEELDAEDRPAWNSKLQYILA [E4M] ; its protein stability index = 1.78

# variant KAVEEELDAEDRPAENSKLQYILA [W15E] ; its protein stability index = 4.65

# variant KAVEEELAAEDRPAWNSKLQYILA [D8A] ; its protein stability index = 3.21

# variant KAVEEELDAEDRPVWNSKLQYILA [A14V] ; its protein stability index = 2.38

# variant KAVEEELDAEDRPAWNSKLLYILA [Q20L] ; its protein stability index = 1.88

# variant KAVEEELDAEDRPAWNFKLQYILA [S17F] ; its protein stability index = 2.5

# variant KAVEIELDAEDRPAWNSKLQYILA [E5I] ; its protein stability index = 2.19

# variant KANEEELDAEDRPAWNSKLQYILA [V3N] ; its protein stability index = 3.07

# variant KAVEEELPAEDRPAWNSKLQYILA [D8P] ; its protein stability index = 3.77
